- Experimental Details: Food effect (high-fat breakfast) on RBN-3143 pharmacokinetics, cross-over
- Type: in vivo, human
- Reported Conditions: human, plasma, po, 500 mg, single 500 mg oral dose, fed (high-fat breakfast), N=13; read-out: Cmax, geometric mean (Geo CV%)
Reported Property: Cmax (ng/mL)
Answers are plain numbers, in ng/mL.

Ask: Data request, read-out Cmax, for CC(=O)N1CCC(COc2cc(F)c3c(=O)[nH]c(CSC4CCOCC4)nc3c2)CC1 [RBN‐3143]
Reply: 2660

---

- Experimental Details: Pantoprazole (PPI) effect on RBN-3143 pharmacokinetics, cross-over
- Assay type: in vivo, human
- Reported Conditions: human, plasma, po, 500 mg, single 500 mg oral dose, fasted without pantoprazole, N=12, linear mixed-effects model; read-out: AUClast, GLSM
Reported Property: AUC(0-t) (ng·h/mL)
Numbers only, in ng·h/mL.

Ask: Data request, read-out AUC(0-t), for CC(=O)N1CCC(COc2cc(F)c3c(=O)[nH]c(CSC4CCOCC4)nc3c2)CC1 [RBN‐3143]
Reply: 12800

---

- Experimental Details: Food effect (high-fat breakfast) on RBN-3143 pharmacokinetics, cross-over
- Assay type: in vivo, human
- Reported Conditions: human, plasma, po, 500 mg, single 500 mg oral dose, fasted, N=13, linear mixed-effects model; read-out: AUCinf, GLSM
Reported Property: AUC(0-inf) (ng·h/mL)
Answers are plain numbers, in ng·h/mL.

Ask: Data request, read-out AUC(0-inf), for CC(=O)N1CCC(COc2cc(F)c3c(=O)[nH]c(CSC4CCOCC4)nc3c2)CC1
Reply: 13300

---

- Experimental Details: Pantoprazole (PPI) effect on RBN-3143 pharmacokinetics, cross-over
- Assay type: in vivo, human
- Reported Conditions: human, plasma, po, 500 mg, single 500 mg oral dose, fasted without pantoprazole, N=12, linear mixed-effects model; read-out: AUCinf, GLSM
Reported Property: AUC(0-inf) (ng·h/mL)
Give bare numbers, in ng·h/mL.

Ask: Data request, read-out AUC(0-inf), for CC(=O)N1CCC(COc2cc(F)c3c(=O)[nH]c(CSC4CCOCC4)nc3c2)CC1
Reply: 13300

---

- Experimental Details: Multiple ascending dose (MAD) pharmacokinetics in healthy volunteers, BID for 14 days
- Format: in vivo, human
- Reported Conditions: human, plasma, oral, 150 mg, 150 mg BID, Day 14, plasma; read-out: Cmax, mean (SD)
- Description: Analytes were separated by HPLC on a Waters Atlantis T3 analytical column using a gradient mobile phase (mobile phase A: 10% acetonitrile, 90% water, 10 mM ammonium acetate, 0.3% formic acid; mobile phase B: 90% acetonitrile, 10% water, 10 mM ammonium acetate, 0.3% formic acid) run at 0.4 mL/min with initial mobile phase B concentration of 30%.
Reported Property: Cmax (ng/mL)
Give bare numbers, in ng/mL.

Ask: Data request, read-out Cmax, for CC(=O)N1CCC(COc2cc(F)c3c(=O)[nH]c(CSC4CCOCC4)nc3c2)CC1 [RBN‐3143]
Reply: 861

---

- Test system: CYP3A4
- Experimental Details: clinical
- Reported Conditions: human, in vivo, po, 2 mg, AUCinf, GLSM, midazolam 2 mg single oral dose without RBN-3143 (day 1), N=12
Reported Property: AUC(0-inf) (ng·h/mL)
One number for each entry, in ng·h/mL.

Ask: Data request, read-out AUC(0-inf), for Cc1ncc2n1-c1ccc(Cl)cc1C(c1ccccc1F)=NC2
Reply: 20.8
